Taken from the supplement of paper PMC8882468.

System: HCI-017.E2 (organoid from an ER-positive breast cancer xenograft)
Assay: CTG-3D luminescence at 96 h relative to day-0 seeding control (ratio to day 0); higher = more growth / less cytotoxicity; PDxO 3D drug screen, 96 h, CTG-3D normalised to day-0 seeding control.
Details: 0.00025 µM; days in culture: 85
Assay metric: CTG-3D luminescence at 96 h
Could you keep your reply to the number by itself?

Given the entry COc1cc2c(Oc3ccc4[nH]c(C)cc4c3F)ncnc2cc1OCCCN1CCCC1 [cediranib] , report its measured CTG-3D luminescence at 96 h.
3.39

###

Tested on: HCI-001 (organoid from a triple-negative breast cancer xenograft)
Experiment: CTG-3D luminescence at 96 h relative to day-0 seeding control (ratio to day 0); higher = more growth / less cytotoxicity; PDxO 3D drug screen, 96 h, CTG-3D normalised to day-0 seeding control.
Conditions: 625 fM; days in culture: 327
Assay metric: CTG-3D luminescence at 96 h

The cases that follow already have their CTG-3D luminescence at 96 h on record.
- Compound: "CC(C)n1nc(-c2ccc3oc(N)nc3c2)c2c(N)ncnc21"
  CTG-3D luminescence at 96 h: 1.75
- Compound: "O=C(O)C1(C(=O)O)CCC1.[NH2-].[NH2-].[Pt+2]"
  CTG-3D luminescence at 96 h: 1.83

Given the entry NC(=O)c1cccc2cn(-c3ccc([C@@H]4CCCNC4)cc3)nc12 , report its measured CTG-3D luminescence at 96 h.
2.27

Cool, now NC1(C(=O)N[C@@H](CCO)c2ccc(Cl)cc2)CCN(c2nc[nH]c3nccc2-3)CC1
1.81

Cool, now O=C(/C=C/c1cccnc1)NCCCCC1CCN(C(=O)c2ccccc2)CC1
1.78

Cool, now CS(=O)(=O)c1ccc(C(=O)Nc2ccc(Cl)c(-c3ccccn3)c2)c(Cl)c1
1.94

Cool, now Nc1ccn([C@@H]2O[C@H](CO)[C@@H](O)C2(F)F)c(=O)n1
1.83

Cool, now CN(Cc1cnc2nc(N)nc(N)c2n1)c1ccc(C(=O)N[C@@H](CCC(=O)O)C(=O)O)cc1 [methotrexate]
1.69
